System: DPP1 in HL-60 cells (Homo sapiens (Human))
Protocol Summary: DPP1 cell single-point percent inhibition testing (HL-60 cells, H-Gly-Phe-AFC substrate)
Assay type: cell-based
Conditions: read-out: DPP1 cell % inhibition @ 5 nM, 5 nM compound, 100 μM H-Gly-Phe-AFC, 60 min pre-incubation at 37° C.
Property: inhibition at 0.005 µM; scope: individual compounds
Attribute Measured: inhibition at 0.005 µM

Compound	System	Attribute Measured	Endpoint Value
Cc1cn2cc(-c3ccc(C[C@@H](C#N)NC(=O)[C@@H](O)CN(C)C)c(F)c3)cc2c(C)n1 [Compound 358]	DPP1 in HL-60 cells (Homo sapiens (Human))	inhibition at 0.005 µM	≤ 76.5%
CN(C)C[C@](C)(O)C(=O)N[C@H](C#N)Cc1ccc(-c2ccc3oc(=O)n(CCN4CCOCC4)c3c2)cc1 [Compound 393]	DPP1 in HL-60 cells (Homo sapiens (Human))	inhibition at 0.005 µM	≤ 76.5%
CN(C)CCn1c(=O)oc2ccc(-c3ccc(C[C@@H](C#N)NC(=O)[C@@](C)(O)CN(C)C)cc3)cc21 [Compound 386]	DPP1 in HL-60 cells (Homo sapiens (Human))	inhibition at 0.005 µM	76.5 to 93.9%
CN(C)C[C@H](O)C(=O)N[C@H](C#N)Cc1ccc(-c2ccc(S(=O)(=O)N3CCC3)cc2)cc1F [Compound 377]	DPP1 in HL-60 cells (Homo sapiens (Human))	inhibition at 0.005 µM	≤ 76.5%

* * *

Parameter inhibition at 0.005 µM: see the listing below.
System: DPP1 in HL-60 cells (Homo sapiens (Human), UniProt P53634)
Sequence (P53634 25-134): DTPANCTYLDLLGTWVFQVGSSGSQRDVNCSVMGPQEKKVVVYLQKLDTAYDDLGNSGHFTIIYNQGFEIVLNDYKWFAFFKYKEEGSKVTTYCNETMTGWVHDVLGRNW
Sequence (P53634 231-394): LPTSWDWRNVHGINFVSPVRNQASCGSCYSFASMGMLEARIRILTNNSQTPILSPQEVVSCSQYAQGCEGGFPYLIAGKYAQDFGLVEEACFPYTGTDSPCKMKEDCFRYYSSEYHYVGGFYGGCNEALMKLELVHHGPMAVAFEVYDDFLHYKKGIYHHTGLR
Sequence (P53634 395-463): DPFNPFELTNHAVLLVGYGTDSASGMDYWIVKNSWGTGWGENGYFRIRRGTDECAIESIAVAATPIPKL
Protocol Summary: DPP1 cell single-point percent inhibition testing (HL-60 cells, H-Gly-Phe-AFC substrate)
Assay type: cell-based
Conditions: read-out: DPP1 cell % inhibition @ 5 nM, 5 nM compound, 100 μM H-Gly-Phe-AFC, 60 min pre-incubation at 37° C.

Molecule	inhibition at 0.005 µM
CO[C@@H](CN(C)C)C(=O)N[C@H](C#N)Cc1ccc(-c2ccc3c(c2)C2(CC3)CCN(C)CC2)cc1 [Compound 300]	≤ 76.5%
CN(C)C[C@](C)(O)C(=O)N[C@H](C#N)Cc1ccc(-c2ccc3c(n2)CCCN3)cc1F [Compound 409]	76.5 to 93.9%
CN(C)C[C@H](O)C(=O)N[C@H](C#N)Cc1ccc(-c2cnc3c(n2)CCCC3)cc1 [Compound 372]	≤ 76.5%
COCCN(C)CCn1c(=O)oc2ccc(-c3ccc(C[C@@H](C#N)NC(=O)[C@H](CN(C)C)OC)c(F)c3)cc21 [Compound 326]	≤ 76.5%
CN(C)CCn1c(=O)oc2ccc(-c3ccc(C[C@@H](C#N)NC(=O)[C@@](C)(O)CN(C)C)c(F)c3)cc21 [Compound 399]	≥ 93.9%
CO[C@@H](CN(C)C)C(=O)N[C@H](C#N)Cc1ccc(-c2ccc3c(c2)C2(CCCN(C)C2)C(=O)N3C)cc1 (stereo partly shown) [Compound 301]	76.5 to 93.9%
CN(C)C[C@H](O)C(=O)N[C@H](C#N)Cc1ccc(-c2ccc3c(c2)C2(CN(C)C2)OC3=O)cc1F [Compound 359]	≤ 76.5%
CO[C@@H](CN(C)C)C(=O)N[C@H](C#N)Cc1ccc(-c2ccc3oc(=O)n(CCN(C)C)c3c2)cc1 [Compound 302]	≤ 76.5%
CO[C@@H](CN(C)C)C(=O)N[C@H](C#N)Cc1ccc(-c2ccc3oc(=O)n(CCN4CCOCC4)c3c2)cc1 [Compound 309]	≤ 76.5%
CN(C)C[C@](C)(O)C(=O)N[C@H](C#N)Cc1ccc(-c2ccc3cnn(C4CCN(C)CC4)c3c2)cc1F [Compound 404]	≤ 76.5%
COCCN(C)CCn1c(=O)oc2ccc(-c3ccc(C[C@@H](C#N)NC(=O)[C@@](C)(O)CN(C)C)c(F)c3)cc21 [Compound 410]	≥ 93.9%
CO[C@@H](CN(C)C)C(=O)N[C@H](C#N)Cc1ccc(-c2ccc3c(n2)CCCN3)cc1F [Compound 325]	≤ 76.5%
CO[C@@H](CN(C)C)C(=O)N[C@H](C#N)Cc1ccc(-c2ccc3c(n2)CCCN3)cc1 [Compound 312]	≤ 76.5%
CN(C)CCn1c(=O)oc2ccc(-c3ccc(C[C@@H](C#N)NC(=O)[C@@H](O)CN(C)C)cc3)cc21 [Compound 344]	≤ 76.5%
CN(C)C[C@H](O)C(=O)N[C@H](C#N)Cc1ccc(-c2ccc3oc(=O)n(C)c3c2)cc1 [Compound 353]	76.5 to 93.9%
CO[C@@H](CN(C)C)C(=O)N[C@H](C#N)Cc1ccc(-c2ccc3cnn(C)c3c2)cc1F [Compound 332]	≤ 76.5%
CN(C)C[C@H](O)C(=O)N[C@H](C#N)Cc1ccc(-c2ccc3c(c2)C2(CCCN(C)C2)C(=O)N3C)cc1 (stereo partly shown) [Compound 343]	≤ 76.5%
CN(C)C[C@H](O)C(=O)N[C@H](C#N)Cc1ccc(-c2ccc3cnn(C)c3c2)cc1 [Compound 370]	≤ 76.5%
CN(C)C[C@H](O)C(=O)N[C@H](C#N)Cc1ccc(-c2ccc3c(c2)C2(CC3)CCN(C)CC2)cc1F [Compound 355]	≤ 76.5%
CN(C)C[C@H](O)C(=O)N[C@H](C#N)Cc1ccc(-c2ccc3c(c2)C2(CC3)CCN(C)CC2)cc1 [Compound 342]	≤ 76.5%
CN(C)C[C@](C)(O)C(=O)N[C@H](C#N)Cc1ccc(-c2ccc(CN3CCN(C)CC3)cc2)cc1F [Compound 407]	≥ 93.9%
CO[C@@H](CN(C)C)C(=O)N[C@H](C#N)Cc1ccc(-c2ccc3c(c2)C2(CC3)CCN(C)CC2)cc1F [Compound 313]	≤ 76.5%
CO[C@@H](CN(C)C)C(=O)N[C@H](C#N)Cc1cc2c(cc1F)-c1ccc(C#N)cc1CO2 [Compound 296]	≤ 76.5%
CN(C)C[C@H](O)C(=O)N[C@H](C#N)Cc1ccc(-c2ccc3oc(=O)n(CCN4CCOCC4)c3c2)cc1F [Compound 364]	≤ 76.5%
CN(C)C[C@](C)(O)C(=O)N[C@H](C#N)Cc1ccc(-c2cnc3c(n2)CCCC3)cc1 [Compound 414]	≤ 76.5%
CO[C@@H](CN(C)C)C(=O)NC(C#N)Cc1cc2c(cc1F)-c1ccc3oc(=O)n(C)c3c1CO2 (stereo partly shown) [Compound 299]	≤ 76.5%
CN(C)C[C@H](O)C(=O)N[C@H](C#N)Cc1ccc(-c2ccc3cnn(C4CCN(C)CC4)c3c2)cc1 [Compound 349]	≤ 76.5%
CO[C@@H](CN(C)C)C(=O)N[C@H](C#N)Cc1ccc(-c2ccc3cnn(C4CCN(C)CC4)c3c2)cc1F [Compound 320]	≤ 76.5%
